Measured HEK-Blue SEAP, IL-33, % inhibition (supernatant), listed per entry.
- targetEntity: T1, human IL1RAP (hu-IL1RAP) on human cells (human, UniProt Q9NPH3 21-570)
- T1 sequence: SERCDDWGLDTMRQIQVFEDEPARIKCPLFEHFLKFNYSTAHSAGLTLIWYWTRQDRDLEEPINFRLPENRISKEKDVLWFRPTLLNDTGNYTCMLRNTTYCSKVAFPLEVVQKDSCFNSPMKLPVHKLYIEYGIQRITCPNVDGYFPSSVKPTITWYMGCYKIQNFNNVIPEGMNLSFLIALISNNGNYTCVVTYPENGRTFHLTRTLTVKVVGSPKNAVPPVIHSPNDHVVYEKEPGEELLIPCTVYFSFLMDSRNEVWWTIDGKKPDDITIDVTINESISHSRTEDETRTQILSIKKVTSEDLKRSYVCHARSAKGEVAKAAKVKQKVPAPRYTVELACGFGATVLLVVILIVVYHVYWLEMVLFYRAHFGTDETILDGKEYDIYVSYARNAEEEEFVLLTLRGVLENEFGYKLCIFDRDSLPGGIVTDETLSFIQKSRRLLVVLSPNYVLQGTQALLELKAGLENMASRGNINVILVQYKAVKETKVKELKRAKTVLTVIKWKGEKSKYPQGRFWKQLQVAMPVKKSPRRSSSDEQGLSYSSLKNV
- assayText: cell-based or functional assay
measuredAttribute: HEK-Blue SEAP, IL-33, % inhibition (supernatant) (%)

| binder | valueReported |
| --- | --- |
| 13D8 (purified mAb from hybridoma 13D8) (antibody, V domains shown, Mouse hybridoma mAb) VH: EVQLVESGGGLVKPGGSLKLSCTASGFTFSNYAMSWVRQTPEKRLEWVATISDGGNYTYYPDNVKGRFTISRDIAKNNLYLQMSHLKSEDTAMYYCARDRWPYFFDFWGQGTTLTVSS VL: DIQMTQSPASLSVSVGETVTITCRASDNIYSNLAWYQEKQGKSPQLLVYGATNLADGVPSRFSGSGSGTQYSLKINSLQSEDFGSYYCQHFWTTPRSFGGGTKLELK | 33 |
| 11C5(Hy) (purified mAb from the 11C5 hybridoma) (antibody, V domains shown, Mouse hybridoma mAb; also called 11C5(Hy) mAb; mAb 11C5(Hy)) VH: EVQLVESGGGLVKPGGSLKLSCAASGFTFSNYAMSWVRQTPEKRLEWVATVTEGGDYNYCLDDVKGRFTISRDNANDNLYLQMSHLKSEDSARYYCARDRWPYFFDYWGQGTTLTVSS VL: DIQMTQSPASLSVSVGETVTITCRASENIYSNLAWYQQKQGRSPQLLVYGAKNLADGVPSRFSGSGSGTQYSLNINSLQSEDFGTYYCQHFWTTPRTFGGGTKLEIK | 65 |
| 9D5 (purified mAb from hybridoma 9D5) (antibody, V domains shown, Mouse hybridoma mAb) VH: QVQLQQSGAELARPGASVKFSCKASGYTFTSYWMQWVKQRPGQGLEWIGTIYPGDGNTRYTQKFKGKATLTADKSSSTAYMQLSGLASEDSAVYYCARGYFGNLVFDVWGAGTTVTVSS VL: DIKMTQSPSSMYASLGERVTITCKASQDINTYLSWFLQKPGKSPKTLIYRADRLVDGVPSRFSGGGSGQDYSLTISSLEYEDLGIYYCLQYDEFPYTFGSGTKLEIK | 18 |
| 10A11 (purified mAb from hybridoma 10A11) (antibody, V domains shown, Mouse hybridoma mAb) VH: EVQLQQSGAELVKPGASVRLSCTSSGFNIKDYFMHWVKQRTEQGLEWVGRIDPEDGETQYAPNFQDKATITVDTSSNTVYLQLSSLTSEDTAVYYCFRPLYYGNSPWFAYWGQGTLVTVSP VL: DIQMTQTTSSLSASLGDRVTISCRASQDISNYLNWYQQKPDGTVKLLIYYTSTLHSGVPSRFSGSGSGTDYSLTISNLEPEDIATYYCHQYSKFPPTFGSGTKLEIK | 51 |
| 8H1 (purified mAb from hybridoma 8H1) (antibody, V domains shown, Mouse hybridoma mAb) VH: QVQLQQSGPELVKSGASVRISCKASGYAFSGSWMNWVKQRPGKGLEWIGRIYPGDGNTNYNGKFKDKATLTADKSSSTAFMQLSSLTSEDSAVYFCARDYYLFYFDYWGQGTTLTVSS VL: NIVMTQTPKFLPVAAEDRVIITCKASQDVSNEVAWYQQKPGQSPKLLMYYASNRYTGVPDRFTGSGSGTDFTFTISSVQVEDLAVYFCQQHYSSPLTFGAGTKLELK | 26 |
